# experimental system: UniProt P50750
# Sequence (P50750 whole entry): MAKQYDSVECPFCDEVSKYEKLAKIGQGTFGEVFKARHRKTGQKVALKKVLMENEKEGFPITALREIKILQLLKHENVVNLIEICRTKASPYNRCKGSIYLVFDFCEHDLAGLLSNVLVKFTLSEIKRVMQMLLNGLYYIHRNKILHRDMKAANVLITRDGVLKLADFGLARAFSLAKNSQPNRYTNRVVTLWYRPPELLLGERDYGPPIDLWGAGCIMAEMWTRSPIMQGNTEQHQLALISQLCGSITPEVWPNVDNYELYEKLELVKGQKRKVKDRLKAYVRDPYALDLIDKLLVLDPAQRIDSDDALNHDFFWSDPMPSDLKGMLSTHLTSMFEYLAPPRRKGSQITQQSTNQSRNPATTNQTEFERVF
# assay procedure: pIC50, kinobeads binding competition
# condition description: cell material: Lysate mix
property measured: pIC50

chemical string | property measured | experimental result
C#CCNC(=O)c1cc(Nc2cc(C3CC3)[nH]n2)nc(N2CCN(Cc3ccc(S(=O)(=O)F)cc3)CC2)n1 | pIC50 | 6.16
C#CCNC(=O)c1cc(Nc2cc(C)[nH]n2)nc(N2CCN(Cc3ccc(S(=O)(=O)F)cc3)CC2)n1 | pIC50 | 4.84
CCNC(=O)c1cc(Nc2cc(C3CC3)[nH]n2)nc(N2CCN(Cc3ccc(S(=O)(=O)F)cc3)CC2)n1 | pIC50 | 4.73
